Target: Cannabinoid receptor 1 (Homo sapiens, UniProt P21554)
Sequence (P21554 whole entry): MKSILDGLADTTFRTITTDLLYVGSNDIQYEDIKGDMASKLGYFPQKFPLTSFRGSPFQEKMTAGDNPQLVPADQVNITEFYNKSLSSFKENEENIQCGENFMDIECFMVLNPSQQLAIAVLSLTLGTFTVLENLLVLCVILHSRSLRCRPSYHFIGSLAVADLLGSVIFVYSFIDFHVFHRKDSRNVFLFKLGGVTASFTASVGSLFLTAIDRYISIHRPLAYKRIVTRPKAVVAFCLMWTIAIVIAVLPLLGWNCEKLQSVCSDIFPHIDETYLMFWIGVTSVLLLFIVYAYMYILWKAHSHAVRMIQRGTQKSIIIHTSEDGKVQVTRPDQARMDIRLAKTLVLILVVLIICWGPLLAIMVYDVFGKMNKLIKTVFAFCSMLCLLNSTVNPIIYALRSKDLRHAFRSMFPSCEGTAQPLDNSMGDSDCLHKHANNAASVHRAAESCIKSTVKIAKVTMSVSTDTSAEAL
Assay: cAMP Assay: CHO cells expressing human CB1 or CB2 receptors are seeded 17-24 hours prior to the experiment 50.000 cells per well in a black 96 well plate with flat clear bottom (Corning Costar #3904) in DMEM (Invitrogen No. 31331), 1xHT supplement, with 10% fetal calf serum and incubated at 5% CO2 and 37° C. in a humidified incubator. The growth medium was exchanged with Krebs Ringer Bicarbonate buffer with 1 mM IBMX and incubated at 30° C. for 30 min. Compounds were added to a final assay volume of 100 ul and incubated for 30 min at 30° C. Using the cAMP-Nano-TRF detection kit the assay (Roche Diagnostics) was stopped by the addition of 50 ul lysis reagent (Tris, NaCl, 1.5% Triton X100, 2.5% NP40, 10% NaN3) and 50 ul detection solutions (20 uM mAb Alexa700-cAMP 1:1, and 48 uM Ruthenium-2-AHA-cAMP) and shaken for 2 h at room temperature. The time-resolved energy transfer is measured by a TRF reader (Evotec Technologies GmbH), equipped with a ND:YAG laser as excitation source. The plate is measured twice with the excitation at 355 nm and at the emission with a delay of 100 ns and a gate of 100 ns, total exposure time 10 s at 730 (bandwidth 30 nm) or 645 nm (bandwidth 75 nm), respectively. The FRET signal is calculated as follows: FRET=T730-Alexa730-P (T645-B645) with P=Ru730-B730/Ru645-B645, where T730 is the test well measured at […], T645 is the test well measured at 645 nm, B730 and B645 are the buffer controls at 730 nm and 645 nm, respectively. cAMP content is determined from the function of a standard curve spanning from 10 uM to 0.13 nM cAMP. EC50 values were determined using Activity Base analysis (ID Business Solution, Limited). The EC50 values for a wide range of cannabinoid agonists generated from this assay were in agreement with the values published in the scientific literature.
READOUT_KIND: EC50

Data request, read-out EC50, for "NC(=O)[C@@H]1CC(F)(F)CN1C(=O)c1cnc(C2CC2)c(OCC2CC2)n1"
> 10 µM

Next up: "CCN(C(=O)c1cnc(N2CC(F)(F)C2)c(OCC2CC2)n1)C(C)C"
> 10 µM

Item: "CC1(C)CCCN1C(=O)c1cnc(C2CC2)c(OCC2CC2)n1"
> 10 µM
